Molecular target: FGFR1 IIIc (Homo sapiens, UniProt P11362)
Construct: host or cells: Cos-1
Sequence (P11362 22-822): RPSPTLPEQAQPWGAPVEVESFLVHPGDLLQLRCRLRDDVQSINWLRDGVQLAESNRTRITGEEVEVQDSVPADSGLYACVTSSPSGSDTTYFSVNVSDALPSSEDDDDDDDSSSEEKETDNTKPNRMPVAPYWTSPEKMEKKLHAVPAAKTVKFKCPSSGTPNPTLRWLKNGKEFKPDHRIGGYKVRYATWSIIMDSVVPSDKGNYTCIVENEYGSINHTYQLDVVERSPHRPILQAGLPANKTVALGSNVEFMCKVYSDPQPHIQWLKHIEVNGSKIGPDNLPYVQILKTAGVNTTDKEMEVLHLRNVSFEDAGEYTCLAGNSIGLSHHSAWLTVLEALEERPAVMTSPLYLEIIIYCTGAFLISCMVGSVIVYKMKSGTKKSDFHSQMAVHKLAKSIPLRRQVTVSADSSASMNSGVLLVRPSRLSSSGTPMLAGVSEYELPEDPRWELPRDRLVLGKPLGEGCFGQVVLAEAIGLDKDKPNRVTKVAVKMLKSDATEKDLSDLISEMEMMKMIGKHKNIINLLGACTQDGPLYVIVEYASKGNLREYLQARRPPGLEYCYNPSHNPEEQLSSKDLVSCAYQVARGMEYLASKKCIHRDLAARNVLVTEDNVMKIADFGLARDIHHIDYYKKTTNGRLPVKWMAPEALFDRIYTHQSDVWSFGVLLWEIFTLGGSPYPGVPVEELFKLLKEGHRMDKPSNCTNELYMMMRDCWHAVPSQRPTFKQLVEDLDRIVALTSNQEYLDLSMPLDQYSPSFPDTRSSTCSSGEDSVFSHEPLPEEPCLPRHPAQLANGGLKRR
Test: Cell based inhibition of transiently expressed FGFR1 IIIc phosphorylation (Cos-1 cells)
Conditions: Cos-1 cells, phospho-FGFR1; upper bound of bin; read-out: IC50
IC50 values by entry

compound	tested-system	IC50
Oc1cccc(CCc2cc(Nc3ccnc(NCc4cc(C5CC5)no4)n3)n[nH]2)c1 [Example 56]	FGFR1 IIIc (Homo sapiens, UniProt P11362)	< 200 nM
CC(C)Cc1cc(Nc2ccnc(NCc3cc(C4CC4)no3)n2)n[nH]1 [Example 16]	FGFR1 IIIc (Homo sapiens, UniProt P11362)	< 1000 nM
Cc1cc(Nc2ccnc(NCc3cc(C4CC4)no3)n2)n[nH]1 [Example 3]	FGFR1 IIIc (Homo sapiens, UniProt P11362)	< 1000 nM
Cc1cc(CNc2nccc(Nc3cc(CCc4cccc(O)c4)[nH]n3)n2)on1 [Example 41]	FGFR1 IIIc (Homo sapiens, UniProt P11362)	< 1000 nM

Continue with the compound presented below.
Form: Entry = Cc1cc(CNc2nccc(Nc3cc(CCc4cccc(CN)c4)[nH]n3)n2)on1 [Example 58] | System = FGFR1 IIIc (Homo sapiens, UniProt P11362) | IC50 = ____
< 30000 nM

All figures here come from patent US20080004302A1.
